# Tested on: Bacillus subtilis
# measurement_description: Antibacterial activity by the agar cylinder plate method, Bacillus subtilis
# Type: cell-based
# test_conditions: copper-containing compound, standard bleomycin A2 = 1,000 mcg potency/mg
Some compounds, each annotated with its measured Antibacterial titer of copper-compound.
Value expressed in mcg potency/mg; do not type the unit.

Cc1c(N)nc(C(CC(N)=O)NCC(N)C(N)=O)nc1C(=O)NC(C(=O)NC(C)C(O)C(C)C(=O)NC(C(=O)NCCc1nc(-c2nc(C(=O)NCCCN(CCCCN(Cc3ccc(Cl)cc3)Cc3ccc(Cl)cc3)Cc3ccc(Cl)cc3)cs2)cs1)C(C)O)C(OC1OC(CO)C(O)C(O)C1OC1OC(CO)C(O)C(OC(N)=O)C1O)c1cnc[nH]1 (stereo not drawn) ... 129
COc1ccc(CN(CCCCN(Cc2ccc(OC)cc2)Cc2ccc(OC)cc2)CCCNC(=O)c2csc(-c3csc(CCNC(=O)C(NC(=O)C(C)C(O)C(C)NC(=O)C(NC(=O)c4nc(C(CC(N)=O)NCC(N)C(N)=O)nc(N)c4C)C(OC4OC(CO)C(O)C(O)C4OC4OC(CO)C(O)C(OC(N)=O)C4O)c4cnc[nH]4)C(C)O)n3)n2)cc1 (stereo not drawn) ... 197

Next item in the queue.
Lookup: Antibacterial titer of copper-compound / Bacillus subtilis / Cc1c(N)nc(C(CC(N)=O)NCC(N)C(N)=O)nc1C(=O)NC(C(=O)NC(C)C(O)C(C)C(=O)NC(C(=O)NCCc1nc(-c2nc(C(=O)NCCCN(CCCCN(Cc3ccc(Cl)c(Cl)c3)Cc3ccc(Cl)c(Cl)c3)Cc3ccc(Cl)c(Cl)c3)cs2)cs1)C(C)O)C(OC1OC(CO)C(O)C(O)C1OC1OC(CO)C(O)C(OC(N)=O)C1O)c1cnc[nH]1 (stereo not drawn) 43
